- targetUnderTest: Nuclear receptor ROR-alpha (Homo sapiens)
- Sequence (P35398 whole entry, the tested form may be a part): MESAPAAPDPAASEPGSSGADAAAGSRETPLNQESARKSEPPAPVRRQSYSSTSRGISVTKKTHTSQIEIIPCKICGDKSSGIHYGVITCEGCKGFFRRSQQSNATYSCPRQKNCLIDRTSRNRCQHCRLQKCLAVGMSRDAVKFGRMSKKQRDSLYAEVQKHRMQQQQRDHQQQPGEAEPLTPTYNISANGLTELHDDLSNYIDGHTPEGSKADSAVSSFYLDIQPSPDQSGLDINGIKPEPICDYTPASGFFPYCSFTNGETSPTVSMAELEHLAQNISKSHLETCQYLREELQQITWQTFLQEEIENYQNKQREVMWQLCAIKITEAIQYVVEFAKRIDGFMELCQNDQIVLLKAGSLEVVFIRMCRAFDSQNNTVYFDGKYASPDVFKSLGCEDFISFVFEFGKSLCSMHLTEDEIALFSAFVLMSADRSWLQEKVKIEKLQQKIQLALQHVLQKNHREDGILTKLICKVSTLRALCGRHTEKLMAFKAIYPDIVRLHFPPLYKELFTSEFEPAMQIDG
- methodNotes: Agonist activity at Gal4-tagged human RORalpha ligand binding domain expressed in human Jurkat cells by native IL17 promoter driven luciferase reporter gene assay
- Assay type: cell-based

smi | EC50
O=S(=O)(c1ccc(F)cc1)N1CCSc2cc(C(O)(C(F)(F)F)C(F)(F)F)ccc21 | > 4 µM

====

- targetUnderTest: Oxysterols receptor LXR-alpha (Homo sapiens)
- Sequence (Q13133 whole entry, the tested form may be a part): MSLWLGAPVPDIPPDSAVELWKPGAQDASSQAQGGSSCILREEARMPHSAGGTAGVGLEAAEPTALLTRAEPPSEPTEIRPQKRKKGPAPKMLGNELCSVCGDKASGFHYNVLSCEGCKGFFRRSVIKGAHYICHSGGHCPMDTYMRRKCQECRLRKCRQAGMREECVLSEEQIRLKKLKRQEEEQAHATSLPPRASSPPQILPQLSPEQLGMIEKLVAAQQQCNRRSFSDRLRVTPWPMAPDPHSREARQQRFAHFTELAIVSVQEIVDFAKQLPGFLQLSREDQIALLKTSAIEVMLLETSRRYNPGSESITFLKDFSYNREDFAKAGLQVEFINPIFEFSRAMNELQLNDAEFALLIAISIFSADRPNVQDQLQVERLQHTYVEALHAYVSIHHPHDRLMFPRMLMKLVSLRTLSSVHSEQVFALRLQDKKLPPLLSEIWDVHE
- methodNotes: Agonist activity at GAL4-tagged human LXRalpha assessed as receptor activation expressed in African green monkey CV1 cells by luciferase reporter gene assay
- Type: cell-based
EC50 by entry:

compound | EC50 [nM]
CC1(C)CCN(S(=O)(=O)c2ccc(F)cc2)c2ccc(C(O)(C(F)(F)F)C(F)(F)F)cc21 | 290
CC(C)(O)CNC(=O)CC1CSc2cc(C(O)(C(F)(F)F)C(F)(F)F)ccc2N1S(=O)(=O)c1ccc(F)cc1 (stereo in doubt; 31) | 315
CN1CCN(S(=O)(=O)c2ccc(F)cc2)c2ccc(C(O)(C(F)(F)F)C(F)(F)F)cc21 | 385
O=C(CC1CN(S(=O)(=O)c2ccc(F)cc2)c2ccc(C(O)(C(F)(F)F)C(F)(F)F)cc2S1)N1CC(O)C1 (centres undefined) | 1300
CC(C)(O)CNC(=O)CC1CN(S(=O)(=O)c2ccc(F)cc2)c2ccc(C(O)(C(F)(F)F)C(F)(F)F)cc2S1 (centres undefined) | 2770
CC(C)(O)CC(=O)NCC1CN(S(=O)(=O)c2ccc(F)cc2)c2ccc(C(O)(C(F)(F)F)C(F)(F)F)cc2S1 (centres undefined) | 374
O=S(=O)(c1ccc(F)cc1)N1CCNc2cc(C(O)(C(F)(F)F)C(F)(F)F)ccc21 | 310
CC(C)(O)CNC(=O)C[C@H]1CCc2cc(C(O)(C(F)(F)F)C(F)(F)F)ccc2N1S(=O)(=O)c1ccc(F)cc1 | 320
O=C(CC1CN(S(=O)(=O)c2ccc(F)cc2)c2ccc(C(O)(C(F)(F)F)C(F)(F)F)cc2S1)Nc1ccncc1 (centres undefined) | 2070

Reference source for all entries: ChEMBL document CHEMBL4177737
